Source listed as IntAct's records for PubMed 29039417.

B1: Protein PTHB1 (Homo sapiens), Q3SYG4 (parent)
chain: MSLFKARDWWSTILGDKEEFDQGCLCLANVDNSGNGQDKIIVGSFMGYLRIFSPHPAKTGDGAQAEDLLLEVDLRDPVLQVEVGKFVSGTEMLHLAVLHSRKLCVYSVSGTLGNVEHGNQCQMKLMYEHNLQRTACNMTYGSFGGVKGRDLICIQSMDGMLMVFEQESYAFGRFLPGFLLPGPLAYSSRTDSFLTVSSCQQVESYKYQVLAFATDADKRQETEQQKLGSGKRLVVDWTLNIGEQALDICIVSFNQSASSVFVLGERNFFCLKDNGQIRFMKKLDWSPSCFLPYCSVSEGTINTLIGNHNNMLHIYQDVTLKWATQLPHIPVAVRVGCLHDLKGVIVTLSDDGHLQCSYLGTDPSLFQAPNVQSRELNYDELDVEMKELQKIIKDVNKSQGVWPMTEREDDLNVSVVVSPNFDSVSQATDVEVGTDLVPSVTVKVTLQNRVILQKAKLSVYVQPPLELTCDQFTFEFMTPDLTRTVSFSVYLKRSYTPSELEGNAVVSYSRPTDRNPDGIPRVIQCKFRLPLKLICLPGQPSKTASHKITIDTNKSPVSLLSLFPGFASQSDDDQVNVMGFHFLGGARITVLASKTSQRYRIQSEQFEDLWLITNELILRLQEYFEKQGVKDFACSFSGSIPLQEYFELIDHHFELRINGEKLEELLSERAVQFRAIQRRLLARFKDKTPAPLQHLDTLLDGTYKQVIALADAVEENQGNLFQSFTRLKSATHLVILLIALWQKLSADQVAILEAAFLPLQEDTQELGWEETVDAAISHLLKTCLSKSSKEQALNLNSQLNIPKDTSQLKKHITLLCDRLSKGGRLCLSTDAAAPQTMVMPGGCTTIPESDLEERSVEQDSTELFTNHRHLTAETPRPEVSPLQGVSE
partner: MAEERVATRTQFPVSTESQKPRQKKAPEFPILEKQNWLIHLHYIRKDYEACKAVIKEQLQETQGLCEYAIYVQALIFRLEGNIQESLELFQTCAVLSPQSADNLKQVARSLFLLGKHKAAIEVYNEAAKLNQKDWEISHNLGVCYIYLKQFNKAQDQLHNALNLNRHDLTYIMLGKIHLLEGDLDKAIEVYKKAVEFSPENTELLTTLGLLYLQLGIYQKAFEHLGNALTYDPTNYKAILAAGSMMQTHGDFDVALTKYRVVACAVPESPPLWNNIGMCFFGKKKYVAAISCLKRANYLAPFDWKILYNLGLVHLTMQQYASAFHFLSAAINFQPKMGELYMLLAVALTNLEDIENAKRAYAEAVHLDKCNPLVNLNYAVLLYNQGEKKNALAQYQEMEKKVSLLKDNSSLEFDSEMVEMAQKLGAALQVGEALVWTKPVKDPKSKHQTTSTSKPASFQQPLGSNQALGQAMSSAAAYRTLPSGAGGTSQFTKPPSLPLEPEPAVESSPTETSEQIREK

variants of: B1; settings: with bbs4_human BBS4, Q96RK4
metric_name: effect of a mutation on the interaction

Worked examples follow.
A690E; with no effect
S637E; with no effect
N420A; with no effect
Q569K; with no effect

What value of effect of a mutation on the interaction has been recorded for this entry: "C469A"
with no effect

Repeat for the following variant: "L465A"
with no effect
